# system: Mitogen-activated protein kinase 14 (Homo sapiens)
# assay_protocol: Inhibition of recombinant human p38alpha expressed in Escherichia coli assessed as residual activity at 10 uM (reference value: 100 +/- 0.1%)
metric: Activity (%)

Reference set (2 entries):
>>> reported_measurement("Cc1cccc(-c2c(-c3ccnc4ccccc34)cnn2CC(=O)Nc2cccc(F)c2)n1")
31
>>> reported_measurement("Cc1cccc(-c2c(-c3ccnc(-c4ccccc4)c3)cnn2CC(=O)Nc2ccccc2F)n1")
96

[a] Cc1cccc(-c2nn(CC(=O)Nc3cccc(C#N)c3)cc2-c2ccnc3ccccc23)n1
[b] Cc1cccc(-c2c(-c3ccnc(-c4ccccc4)c3)cnn2CC(=O)Nc2ccccc2)n1
[c] Cc1cccc(-c2nn(CC(=O)Nc3cccc(F)c3)cc2-c2ccnc(-c3ccccc3)c2)n1
[d] Cc1cccc(-c2nn(CC(=S)Nc3cccc(F)c3)cc2-c2ccnc(-c3ccccc3)c2)n1
Q: Arrange these 4 compounds in increasing order of Activity. Show the ranking through the labels, in the order asked for.
Ans: a, d, c, b

----------
# system: Mitogen-activated protein kinase 14 (Homo sapiens, UniProt Q16539)
# Sequence (Q16539 whole entry): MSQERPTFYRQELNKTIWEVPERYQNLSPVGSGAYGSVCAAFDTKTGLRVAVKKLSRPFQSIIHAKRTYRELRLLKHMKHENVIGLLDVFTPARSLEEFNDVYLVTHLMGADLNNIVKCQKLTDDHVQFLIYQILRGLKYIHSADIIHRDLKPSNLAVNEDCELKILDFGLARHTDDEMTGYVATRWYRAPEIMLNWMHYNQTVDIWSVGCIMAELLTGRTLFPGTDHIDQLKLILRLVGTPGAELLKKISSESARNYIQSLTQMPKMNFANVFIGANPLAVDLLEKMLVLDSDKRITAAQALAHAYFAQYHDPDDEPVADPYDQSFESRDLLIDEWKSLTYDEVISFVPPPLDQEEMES
# assay_protocol: Inhibition of recombinant human p38alpha expressed in Escherichia coli
metric: IC50 (nM)

Reference set (5 entries):
>>> reported_measurement("Cc1cccc(-c2nn(CC(=S)Nc3ccccc3)cc2-c2ccnc3ccccc23)n1")
74
>>> reported_measurement("Cc1cccc(-c2nn(CC(=S)Nc3cccc(C#N)c3)cc2-c2ccnc(-c3ccccc3)c2)n1")
1150
>>> reported_measurement("Cc1cccc(-c2nn(CC(=S)Nc3ccccc3F)cc2-c2ccnc(-c3ccccc3)c2)n1")
487
>>> reported_measurement("Cc1cccc(-c2nn(CC(=S)Nc3ccccc3F)cc2-c2ccnc3ccccc23)n1")
68
>>> reported_measurement("Cc1cccc(-c2nn(CC(=S)Nc3ccccc3)cc2-c2ccnc(-c3ccccc3)c2)n1")
536

[I] Cc1cccc(-c2nn(CC(=S)Nc3cccc(F)c3)cc2-c2ccnc3ccccc23)n1
[II] Cc1cccc(-c2nn(CC(=S)Nc3cccc(F)c3)cc2-c2ccnc(-c3ccccc3)c2)n1
[III] Cc1cccc(-c2nn(CC(=S)Nc3cccc(C#N)c3)cc2-c2ccnc3ccccc23)n1
Q: Highest IC50 first, then in falling order down to the smallest. Show the ranking through the labels, in the order asked for.
Ans: II, III, I

----------
# system: TGF-beta receptor type-1 (Homo sapiens, UniProt P36897)
# assay_protocol: Inhibition of recombinant GST-tagged human ALK5 expressed in baculovirus infected Sf9 insect cells
pIC50: −log10 of the molar value.
metric: pIC50

Reference set (3 entries):
>>> reported_measurement("Cc1cccc(-c2nn(CC(=S)Nc3ccccc3)cc2-c2ccnc3ccccc23)n1")
7.24
>>> reported_measurement("Cc1cccc(-c2nn(CC(=S)Nc3cccc(C#N)c3)cc2-c2ccnc(-c3ccccc3)c2)n1")
5.66
>>> reported_measurement("Cc1cccc(-c2nn(CC(=S)Nc3cccc(F)c3)cc2-c2ccnc3ccccc23)n1")
7.37

[a] Cc1cccc(-c2nn(CC(=S)Nc3cccc(F)c3)cc2-c2ccnc(-c3ccccc3)c2)n1
[b] Cc1cccc(-c2nn(CC(=S)Nc3cccc(C#N)c3)cc2-c2ccnc3ccccc23)n1
Q: Hi! Which is lower in terms of pIC50, the first one a or the second one b ? Field: selected label. Fill in the label of the entry you choose.
Ans: a

----------
# system: Mitogen-activated protein kinase 14 (Homo sapiens)
# assay_protocol: Inhibition of recombinant human p38alpha expressed in Escherichia coli assessed as residual activity at 10 uM (reference value: 100 +/- 0.1%)
metric: Activity (%)

Reference set (6 entries):
>>> reported_measurement("Cc1cccc(-c2nn(CC(=S)Nc3cccc(C#N)c3)cc2-c2ccnc(-c3ccccc3)c2)n1")
15
>>> reported_measurement("Cc1cccc(-c2nn(CC(=S)Nc3ccccc3)cc2-c2ccnc3ccccc23)n1")
3
>>> reported_measurement("Cc1cccc(-c2nn(CC(=O)Nc3cccc(F)c3)cc2-c2ccnc3ccccc23)n1")
4
>>> reported_measurement("Cc1cccc(-c2nn(CC(=S)Nc3ccccc3F)cc2-c2ccnc(-c3ccccc3)c2)n1")
4
>>> reported_measurement("Cc1cccc(-c2nn(CC(=S)Nc3ccccc3F)cc2-c2ccnc3ccccc23)n1")
4
>>> reported_measurement("Cc1cccc(-c2nn(CC(=O)Nc3ccccc3F)cc2-c2ccnc(-c3ccccc3)c2)n1")
20

[P] Cc1cccc(-c2c(-c3ccnc(-c4ccccc4)c3)cnn2CC(=O)Nc2cccc(F)c2)n1
[Q] Cc1cccc(-c2nn3c(c2-c2ccnc4ccc(C(N)=O)cc24)CCC3)n1 [GALUNISERTIB]
[R] Cc1cccc(-c2c(-c3ccnc4ccccc34)cnn2CC(=O)Nc2ccccc2F)n1
[S] Cc1cccc(-c2nn(CC(=O)Nc3ccccc3)cc2-c2ccnc(-c3ccccc3)c2)n1
[T] Cc1cccc(-c2nn(CC(=O)Nc3ccccc3F)cc2-c2ccnc3ccccc23)n1
Q: Arrange these 5 compounds in increasing order of Activity. Show the ranking through the labels, in the order asked for.
Ans: Q, T, S, R, P
(Q: 4%, T: 6%, S: 11%, R: 50%, P: 81%)

----------
# system: TGF-beta receptor type-1 (Homo sapiens) (UniProt P36897)
# assay_protocol: Inhibition of recombinant GST-tagged human ALK5 expressed in baculovirus infected Sf9 insect cells assessed as residual activity at 10 uM
metric: Activity (%)

Reference set (2 entries):
>>> reported_measurement("Cc1cccc(-c2c(-c3ccnc(-c4ccccc4)c3)cnn2CC(=O)Nc2cccc(C#N)c2)n1")
105
>>> reported_measurement("Cc1cccc(-c2c(-c3ccnc4ccccc34)cnn2CC(=O)Nc2cccc(F)c2)n1")
39

[A] Cc1cccc(-c2nn(CC(=O)Nc3cccc(C#N)c3)cc2-c2ccnc3ccccc23)n1
[B] Cc1cccc(-c2nn(CC(=S)Nc3ccccc3F)cc2-c2ccnc(-c3ccccc3)c2)n1
Q: From the recorded data, which exceeds the other in Activity: A or B ? Field: selected label. Fill in the label of the entry you choose.
Ans: B
(B: 11%, A: 1%)

----------
# system: TGF-beta receptor type-1 (Homo sapiens, UniProt P36897)
# Sequence (P36897 whole entry): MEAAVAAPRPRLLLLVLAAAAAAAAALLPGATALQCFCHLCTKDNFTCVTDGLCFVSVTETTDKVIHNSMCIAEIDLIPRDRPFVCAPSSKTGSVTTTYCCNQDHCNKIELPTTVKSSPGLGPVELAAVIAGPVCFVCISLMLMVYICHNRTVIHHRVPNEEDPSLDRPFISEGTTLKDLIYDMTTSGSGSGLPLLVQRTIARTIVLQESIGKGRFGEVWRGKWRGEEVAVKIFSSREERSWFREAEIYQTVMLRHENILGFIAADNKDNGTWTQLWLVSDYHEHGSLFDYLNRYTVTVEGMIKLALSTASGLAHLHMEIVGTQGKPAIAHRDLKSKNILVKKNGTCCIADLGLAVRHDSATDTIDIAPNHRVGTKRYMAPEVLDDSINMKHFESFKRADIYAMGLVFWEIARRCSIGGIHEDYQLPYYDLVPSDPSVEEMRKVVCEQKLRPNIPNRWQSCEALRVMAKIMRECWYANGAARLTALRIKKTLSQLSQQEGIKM
# assay_protocol: Inhibition of recombinant GST-tagged human ALK5 expressed in baculovirus infected Sf9 insect cells
metric: IC50 (µM)

>>> reported_measurement("Cc1cccc(-c2nn(CC(=S)Nc3ccccc3F)cc2-c2ccnc(-c3ccccc3)c2)n1")
2.05

[A] Cc1cccc(-c2nn(CC(=S)Nc3ccccc3)cc2-c2ccnc(-c3ccccc3)c2)n1
[B] Cc1cccc(-c2nn(CC(=S)Nc3ccccc3F)cc2-c2ccnc3ccccc23)n1
Q: Hi! Which is lower in terms of IC50, the first one A or the second one B ? Field: selected label. Fill in the label of the entry you choose.
Ans: B
